test: NCI Yeast Anticancer Drug Screen. Data for the bub3 strain (AID 167); settings: S. cerevisiae bub3 mutant strain, at 50.0 µM
The panel holds about 79,000 compounds, 15% with a hit somewhere; the sample as a whole holds those more often. Activity calls are given as the source filed them. Cut-off read from the data, not from the text of the source: active = growth inhibition above about 70%; inactive = the rest.
Outcomes: active, inactive

[
  {
    "Molecule": "O=C1NOCC1N=Cc1cc(Cl)ccc1O (configuration not stated)",
    "Group": "inactive"
  },
  {
    "Molecule": "N#Cc1ccc([N+](=O)[O-])o1",
    "Group": "active"
  },
  {
    "Molecule": "C=C1CC(c2ccc(OCCCN3C(=O)c4ccccc4C3=O)c(OC)c2)OC1=O (configuration not stated)",
    "Group": "active"
  },
  {
    "Molecule": "O=C(/C=C/c1ccccc1)C1(c2ccccc2)CC1",
    "Group": "inactive"
  },
  {
    "Molecule": "CCN(CC)CCCC(Nc1c2ccc(Cl)cc2nc2ccc(OC)cc12)c1cccs1 (configuration not stated)",
    "Group": "inactive"
  },
  {
    "Molecule": "CC(=O)c1c(C)n(C)c2c1nnc1ccccc12",
    "Group": "inactive"
  },
  {
    "Molecule": "CCCCCCCCC(=O)NCCN(CCN)C(=O)CCCCCCCC",
    "Group": "active"
  },
  {
    "Molecule": "S=C(NC(=S)Nc1ccc(Cl)cc1)Nc1ccc(Cl)cc1",
    "Group": "active"
  },
  {
    "Molecule": "O=C(O)c1ccc(/C=C2\\COc3ccccc3C2=O)cc1",
    "Group": "inactive"
  },
  {
    "Molecule": "N#CC1Oc2ccccc2N1C(=O)c1ccccc1 (configuration not stated)",
    "Group": "active"
  },
  {
    "Molecule": "N#CSCC(=O)c1ccc(Cl)cc1",
    "Group": "active"
  },
  {
    "Molecule": "CC(=O)OC1CCC2(C)C3CCC4(C)C(C(C)CCCC(C)C)CCC4C3CCC23OC13C (configuration not stated)",
    "Group": "inactive"
  }
]
